Assay: Mice CNS PK study
Format: in vivo
Settings: brain/plasma (printed as Brain/Blood); CD-1 mouse; read-out: Brain/Blood Ratio
readout: Kp
Returns: the value as a bare number; no unit string appended.

Some molecules with known Kp results, for comparison:
molecule	readout	reportedMeasurement
C=CCn1c(=O)c2cnc(Nc3ccc(N4CCN(C)CC4)cc3)nc2n1-c1cccc(C(C)(C)O)n1 [AZD1775, reference compound]	Kp	0.058
CC(C)n1c(=O)c2cnc(Nc3ccc(N4CCN(C)CC4)cc3)nc2n1-c1cccc(C2CC2)n1 [Example 15]	Kp	1
CC(C)n1c(=O)c2cnc(Nc3ccc(N4CCN(C)CC4)cc3)nc2n1-c1cccc(C(C)(C)C(F)(F)F)n1 [Example 11]	Kp	1.6

response.value for CC(C)n1c(=O)c2cnc(Nc3ccc(N4CCN(C)CC4)cc3)nc2n1-c1cccc(C(C)(C)F)n1 [Example 13] (field: Kp) = 1.38
